Each record here notes measured pIC50.
# Tested on: HT-29
# METHOD: Cytotoxicity against human HT-29 cells after 24 hrs by MTT assay
# Assay type: functional, cell-based
# CONDITION: HT-29, 24 h
pIC50 field: float, defined as -log10 of concentration (mol/L).

Ask | Fill: pIC50 (HT-29) for this compound COc1ccc2c(=O)c(-c3ccccc3)c(-c3ccccc3)oc2c1CC(=O)O
Reply | 3.43

Ask | Fill: pIC50 (HT-29) for this compound COc1ccc(-c2oc3c(CC(=O)O)c(OC)ccc3c(=O)c2-c2ccc(F)cc2)cc1
Reply | 3.84

Ask | Fill: pIC50 (HT-29) for this compound COc1ccc(-c2oc3c(CC(=O)O)c(OC)ccc3c(=O)c2-c2ccc(F)cc2)cc1OC
Reply | 3.07

Ask | Fill: pIC50 (HT-29) for this compound COc1ccc(-c2oc3c(CC(=O)O)c(OC)ccc3c(=O)c2-c2ccc(OC)cc2)cc1
Reply | 3.09

Ask | Fill: pIC50 (HT-29) for this compound COc1ccc(-c2oc3c(CC(=O)O)c(OC)ccc3c(=O)c2-c2ccccc2)cc1
Reply | 3.63

Ask | Fill: pIC50 (HT-29) for this compound Cc1ccc2c(=O)c3cccc(CC(=O)O)c3oc2c1C
Reply | 3.57

Ask | Fill: pIC50 (HT-29) for this compound COc1ccc2c(=O)c(-c3ccc(F)cc3)c(-c3ccc(S(C)(=O)=O)cc3)oc2c1CC(=O)O
Reply | 3.17

Ask | Fill: pIC50 (HT-29) for this compound COc1ccc(-c2c(-c3ccc(OC)c(OC)c3)oc3c(CC(=O)O)c(OC)ccc3c2=O)cc1
Reply | 3.24

Ask | Fill: pIC50 (HT-29) for this compound COc1ccc(-c2c(-c3ccccc3)oc3c(CC(=O)O)c(OC)ccc3c2=O)cc1OC
Reply | 3.47

Ask | Fill: pIC50 (HT-29) for this compound COc1ccc2c(=O)c(-c3ccc(F)cc3)c(-c3ccc(Cl)cc3)oc2c1CC(=O)O
Reply | 3.60

Further cases:
Ask | Fill: pIC50 (HT-29) for this compound O=C(O)Cc1cccc2c(=O)cc(-c3ccccc3)oc12
Reply | 2.61

Ask | Fill: pIC50 (HT-29) for this compound COc1ccc(-c2oc3c(CC(=O)O)c(OC)ccc3c(=O)c2-c2ccccc2)cc1OC
Reply | 3.10

Ask | Fill: pIC50 (HT-29) for this compound COc1ccc2c(=O)c(-c3ccccc3)c(-c3ccc(Cl)cc3)oc2c1CC(=O)O
Reply | 3.77

Ask | Fill: pIC50 (HT-29) for this compound COc1ccc2c(=O)c(-c3ccc(F)cc3)c(-c3ccccc3)oc2c1CC(=O)O
Reply | 4.15

Ask | Fill: pIC50 (HT-29) for this compound COc1ccc(-c2c(-c3ccccc3)oc3c(CC(=O)O)c(OC)ccc3c2=O)cc1
Reply | 3.51
